Biological target: FGFR2 (Homo sapiens, UniProt P21802)
Construct: made in house; host or cells: E. coli (BL21-derived), T7 phage
Sequence (P21802 22-821): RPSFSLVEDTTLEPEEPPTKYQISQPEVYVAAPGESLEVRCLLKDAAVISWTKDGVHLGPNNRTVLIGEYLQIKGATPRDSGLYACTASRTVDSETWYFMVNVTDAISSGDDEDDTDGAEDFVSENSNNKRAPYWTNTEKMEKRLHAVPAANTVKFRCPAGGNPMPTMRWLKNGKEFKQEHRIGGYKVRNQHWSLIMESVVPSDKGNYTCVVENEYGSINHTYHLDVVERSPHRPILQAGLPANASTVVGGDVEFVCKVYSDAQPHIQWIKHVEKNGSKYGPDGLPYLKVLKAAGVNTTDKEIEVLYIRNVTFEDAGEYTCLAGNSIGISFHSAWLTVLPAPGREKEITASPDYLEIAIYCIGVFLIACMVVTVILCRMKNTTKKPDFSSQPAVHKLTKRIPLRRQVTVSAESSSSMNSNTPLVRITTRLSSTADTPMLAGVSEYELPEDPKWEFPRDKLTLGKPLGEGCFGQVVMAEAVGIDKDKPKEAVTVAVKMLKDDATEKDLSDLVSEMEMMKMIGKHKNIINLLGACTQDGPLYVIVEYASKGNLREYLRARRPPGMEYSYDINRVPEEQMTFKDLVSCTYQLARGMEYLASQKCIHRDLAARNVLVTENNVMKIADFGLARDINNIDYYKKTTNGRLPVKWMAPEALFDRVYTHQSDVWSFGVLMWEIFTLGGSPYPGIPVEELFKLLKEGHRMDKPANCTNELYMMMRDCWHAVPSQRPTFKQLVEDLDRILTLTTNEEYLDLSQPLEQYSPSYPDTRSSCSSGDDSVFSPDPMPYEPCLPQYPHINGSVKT
Experiment: Kinase binding assay (kinase-tagged T7 phage, affinity beads, qPCR), Kd
Conditions: read-out: FGFR2 (Kd nM)
quantityKind: Kd

Example compounds with recorded Kd:
[[record]]
compoundstructure = "C[C@@H](Oc1ccc2[nH]nc(-c3ccc(N4CC(C)(N5CCOCC5)C4)nc3)c2c1)c1c(Cl)cncc1Cl"
datavalue = "1 to 50 nM"

[[record]]
compoundstructure = "C[C@@H](Oc1ccc2[nH]nc(-c3cnc(N4CC(C)(N5CCC5)C4)c(C#N)c3)c2c1)c1c(Cl)cncc1Cl"
datavalue = "1 to 50 nM"

[[record]]
compoundstructure = "C[C@H]1CN(C2(C)CN(c3ncc(-c4n[nH]c5ccc(O[C@H](C)c6c(Cl)cncc6Cl)cc45)cc3F)C2)CCO1"
datavalue = "1 to 50 nM"

[[record]]
compoundstructure = "COc1cc2[nH]nc(-c3cnc(N4CC(N)(CCS(C)(=O)=O)C4)c(C#N)c3)c2cc1O[C@H](C)c1c(Cl)cncc1Cl"
datavalue = "1 to 50 nM"

[[record]]
compoundstructure = "Cc1ncc(Cl)c([C@@H](C)Oc2ccc3[nH]nc(-c4cnc(N5CC(C)(N6CCOCC6)C5)c(C#N)c4)c3c2)c1Cl"
datavalue = "50 to 300 nM"


Which Kd is reported for this compound? COc1cc2[nH]nc(-c3cnc(N4CC(C)(N(C)CC5CC5)C4)c(C#N)c3)c2cc1O[C@H](C)c1c(Cl)cncc1Cl 1 to 50 nM

Which Kd is reported for this compound? CCCNC1(C)CN(c2ncc(-c3n[nH]c4ccc(O[C@H](C)c5c(Cl)cncc5Cl)cc34)cc2F)C1 1 to 50 nM

Which Kd is reported for this compound? C[C@H](Oc1ccc2[nH]nc(-c3cnc(N4C[C@H](CS(C)(=O)=O)[C@H]4C)c(F)c3)c2c1)c1c(Cl)cncc1Cl > 1000 nM

Which Kd is reported for this compound? C[C@@H](Oc1ccc2[nH]nc(-c3cnc(N4CC(C)(N5CCP(C)(=O)CC5)C4)c(C#N)c3)c2c1)c1c(Cl)cncc1Cl 1 to 50 nM

Which Kd is reported for this compound? CCNC1(C)CN(c2ccc(-c3n[nH]c4ccc(O[C@H](C)c5c(Cl)cncc5Cl)cc34)cn2)C1 1 to 50 nM

Which Kd is reported for this compound? C[C@@H](Oc1ccc2[nH]nc(-c3cnc(N4CC(C)(NCCC(F)F)C4)c(C#N)c3)c2c1)c1c(Cl)cncc1Cl 50 to 300 nM

###

System: KG-1 cell line (FGFR 1-fusion)
Experiment: Cancer cell line cell viability assay (Cell Titer-Glo), 72 hr
Assay type: cell-based
Settings: Homo sapiens, KG-1, KG-1 cell line (FGFR1-fusion)
quantityKind: IC50

Example compounds with recorded IC50:
[[record]]
compoundstructure = "C[C@@H](Oc1ccc2[nH]nc(-c3cnc(N4CC(C)(CN5CCCC5)C4)c(C#N)c3)c2c1)c1c(Cl)cncc1Cl"
quantitykind = "IC50"
datavalue = "200 to 1000 nM"

[[record]]
compoundstructure = "CC(C)OCC1(N)CN(c2ccc(-c3n[nH]c4ccc(O[C@H](C)c5c(Cl)cncc5Cl)cc34)nn2)C1"
quantitykind = "IC50"
datavalue = "200 to 1000 nM"

[[record]]
compoundstructure = "C[C@@H](Oc1ccc2[nH]nc(-c3cnc(N4CC(N)(c5cnn(C)c5)C4)c(F)c3)c2c1)c1c(Cl)cncc1Cl"
quantitykind = "IC50"
datavalue = "50 to 200 nM"

[[record]]
compoundstructure = "C[C@@H](Oc1ccc2[nH]nc(-c3cnc(N4CC(C)(NCC(C)(C)O)C4)c(F)c3)c2c1)c1c(Cl)cncc1Cl"
quantitykind = "IC50"
datavalue = "50 to 200 nM"

[[record]]
compoundstructure = "C[C@@H](Oc1ccc2[nH]nc(-c3ccc(N4CC(N)(Cc5cnn(C)c5)C4)nn3)c2c1)c1c(Cl)cncc1Cl"
quantitykind = "IC50"
datavalue = "200 to 1000 nM"


Which IC50 is reported for this compound? C[C@@H](Oc1ccc2[nH]nc(-c3ccc(N4CC(C)(NCC(=O)N(C)C)C4)nn3)c2c1)c1c(Cl)cncc1Cl 200 to 1000 nM

Which IC50 is reported for this compound? C=CCNC1(CC#N)CN(c2ncc(-c3n[nH]c4ccc(O[C@H](C)c5c(Cl)cncc5Cl)cc34)cc2F)C1 200 to 1000 nM

Which IC50 is reported for this compound? CC[C@@H](C)NC1(C)CN(c2ncc(-c3n[nH]c4cc(OC)c(O[C@H](C)c5c(Cl)cncc5Cl)cc34)cc2C#N)C1 50 to 200 nM

Which IC50 is reported for this compound? C[C@@H](Oc1ccc2[nH]nc(-c3cnc(N4CC(N)(CCO)C4)c(F)c3)c2c1)c1c(Cl)cncc1Cl 50 to 200 nM

Which IC50 is reported for this compound? C[C@@H](Oc1ccc2[nH]nc(-c3cnc(N4CC(C)(NC5COC5)C4)c(C#N)c3)c2c1)c1c(Cl)cncc1Cl 200 to 1000 nM

Which IC50 is reported for this compound? C[C@@H](Oc1ccc2[nH]nc(-c3cnc(N4CC(C)(N5CCOCC5)C4)c(C#N)c3)c2c1)c1c(Cl)cncc1Cl 200 to 1000 nM

Which IC50 is reported for this compound? C[C@@H](Oc1ccc2[nH]nc(-c3cnc(N4CC(N)(CCS(C)(=O)=O)C4)c(F)c3)c2c1)c1c(Cl)cncc1Cl 50 to 200 nM

Which IC50 is reported for this compound? C[C@@H](Oc1ccc2[nH]nc(-c3cnc(N4CC(C)(N[C@H]5CCOC5)C4)c(C#N)c3)c2c1)c1c(Cl)cncc1Cl 200 to 1000 nM

Which IC50 is reported for this compound? C[C@@H](Oc1ccc2[nH]nc(-c3cnc(N4CC(C)(NCC5CC5)C4)c(F)c3)c2c1)c1c(Cl)cncc1Cl 50 to 200 nM

Which IC50 is reported for this compound? COc1cc2[nH]nc(-c3ccc(N4CC(C)(N[C@@H]5CCOC5)C4)nc3)c2cc1O[C@H](C)c1c(Cl)cncc1Cl 0.1 to 50 nM

Which IC50 is reported for this compound? C[C@@H](Oc1ccc2[nH]nc(-c3cnc(N4CC(N)(C5CCC5)C4)c(F)c3)c2c1)c1c(Cl)cncc1Cl 50 to 200 nM

Which IC50 is reported for this compound? C[C@@H](Oc1ccc2[nH]nc(-c3cnc(N4CC(C)(CN5CCCC5)C4)c(F)c3)c2c1)c1c(Cl)cncc1Cl 0.1 to 50 nM

Which IC50 is reported for this compound? C[C@@H](Oc1ccc2[nH]nc(-c3cnc(N4CC(C)(N5C[C@@H]6C[C@H]5CO6)C4)c(F)c3)c2c1)c1c(Cl)cncc1Cl 0.1 to 50 nM

Which IC50 is reported for this compound? CC(C)NC1(C)CN(c2ncc(-c3n[nH]c4ccc(O[C@H](C)c5c(Cl)cncc5Cl)cc34)cc2F)C1 50 to 200 nM

Which IC50 is reported for this compound? C[C@@H](Oc1ccc2[nH]nc(-c3ccc(N4CC(N)(CCO)C4)nn3)c2c1)c1c(Cl)cncc1Cl > 1000 nM

Which IC50 is reported for this compound? COc1cc2[nH]nc(-c3cnc(N4CC(N)(CC=C(C)C)C4)c(C#N)c3)c2cc1O[C@H](C)c1c(Cl)cncc1Cl 200 to 1000 nM

Which IC50 is reported for this compound? COc1cc2[nH]nc(-c3cnc(N4CC(C)(N5CC(C)(O)C5)C4)c(C#N)c3)c2cc1O[C@H](C)c1c(Cl)cncc1Cl 0.1 to 50 nM
